Can you tell me IC50 for the items I'm about to list?
- measured on: human TLR9 (Homo sapiens (Human))
- Sequence (Q9NR96 26-1032): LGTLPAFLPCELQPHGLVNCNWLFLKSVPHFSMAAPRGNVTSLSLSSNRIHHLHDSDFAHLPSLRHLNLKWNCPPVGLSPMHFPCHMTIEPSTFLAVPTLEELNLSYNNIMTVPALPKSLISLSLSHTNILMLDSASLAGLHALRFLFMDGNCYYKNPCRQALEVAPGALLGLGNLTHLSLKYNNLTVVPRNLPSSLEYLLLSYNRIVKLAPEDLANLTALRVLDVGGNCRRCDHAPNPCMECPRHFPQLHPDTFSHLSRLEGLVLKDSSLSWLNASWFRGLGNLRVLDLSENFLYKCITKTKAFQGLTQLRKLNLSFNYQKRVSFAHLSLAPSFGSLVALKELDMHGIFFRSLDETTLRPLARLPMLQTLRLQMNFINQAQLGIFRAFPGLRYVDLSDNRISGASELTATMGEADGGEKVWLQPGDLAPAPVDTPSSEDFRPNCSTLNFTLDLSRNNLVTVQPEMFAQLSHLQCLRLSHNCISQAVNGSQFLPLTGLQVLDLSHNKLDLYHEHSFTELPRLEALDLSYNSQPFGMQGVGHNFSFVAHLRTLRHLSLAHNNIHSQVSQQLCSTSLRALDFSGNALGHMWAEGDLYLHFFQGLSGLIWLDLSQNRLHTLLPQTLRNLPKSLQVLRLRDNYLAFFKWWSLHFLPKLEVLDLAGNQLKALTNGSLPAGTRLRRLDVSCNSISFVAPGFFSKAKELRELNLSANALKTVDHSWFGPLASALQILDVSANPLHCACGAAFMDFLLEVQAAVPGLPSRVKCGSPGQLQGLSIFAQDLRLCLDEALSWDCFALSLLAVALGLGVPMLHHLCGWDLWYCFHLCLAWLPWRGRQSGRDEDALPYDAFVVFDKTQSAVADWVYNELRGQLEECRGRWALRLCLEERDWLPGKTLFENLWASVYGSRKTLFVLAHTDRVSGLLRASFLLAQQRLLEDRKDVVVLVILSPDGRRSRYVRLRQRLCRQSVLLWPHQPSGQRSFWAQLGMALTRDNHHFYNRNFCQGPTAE
- assay notes: TLR9 inhibition reporter assay (HEK-Blue SEAP);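 note: SEAP driven by an IFN-β minimal promoter with NF-κB and AP-1 sites, read after 22 h, compounds dosed 0.05 nM–50 µM, inhibition scaled between agonist plus DMSO and reference-inhibitor wells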
- study conditions: read-out: TLR9 IC50; HEK-Blue cells overexpressing human TLR9, ODN2006 5 nM stimulation, SEAP reporter
Give bare numbers, in nM.

Known IC50 results, listed for orientation:
compound | unit spec | IC50
Cc1c(-c2[nH]c3ccc(N4CC5(CCN(CCS(C)(=O)=O)CC5)C4)nc3c2C(C)C)cn2ncnc2c1C [Example 45] | nM | 7280
CCn1cc(-c2[nH]c3ccc(C4CCC(NC5CCOCC5)CC4)nc3c2C(C)C)c2cccnc21 (stereo not shown) [Example 292] | nM | 1620
CNC1CCC(c2ccc3[nH]c(-c4cn(CC#N)c5ncccc45)c(C(C)C)c3n2)CC1 (stereo not shown) [Example 270] | nM | 322
COCC(C)N1CCN(c2ccc3[nH]c(-c4cc(OC)c5ncnn5c4)c(C(C)C)c3n2)CC1 (stereo not shown) [Example 112] | nM | 6010
COc1cc(-c2[nH]c3ccc(C4CCC(N(C)C(C)C)CC4)nc3c2C(C)C)cn2ncnc12 (stereo not shown) [Example 170] | nM | 1410
COc1cc(-c2[nH]c3cc(C)c(C4CCC(N(C)CC(C)(C)C)CC4)nc3c2C(C)C)cn2ncnc12 (stereo not shown) [Example 334] | nM | 2400

Turning now to a further record.
Request: Value lookup for IC50; key = Cc1c(-c2[nH]c3ccc(C4CCC(NC5COC5)CC4)nc3c2C(C)C)cn2ncnc2c1C (stereo not shown) [Example 350]
Result: 1160
